Recorded values, source ChEMBL document CHEMBL1132952.

Target: UniProtKB P23977
Sequence (P23977 whole entry): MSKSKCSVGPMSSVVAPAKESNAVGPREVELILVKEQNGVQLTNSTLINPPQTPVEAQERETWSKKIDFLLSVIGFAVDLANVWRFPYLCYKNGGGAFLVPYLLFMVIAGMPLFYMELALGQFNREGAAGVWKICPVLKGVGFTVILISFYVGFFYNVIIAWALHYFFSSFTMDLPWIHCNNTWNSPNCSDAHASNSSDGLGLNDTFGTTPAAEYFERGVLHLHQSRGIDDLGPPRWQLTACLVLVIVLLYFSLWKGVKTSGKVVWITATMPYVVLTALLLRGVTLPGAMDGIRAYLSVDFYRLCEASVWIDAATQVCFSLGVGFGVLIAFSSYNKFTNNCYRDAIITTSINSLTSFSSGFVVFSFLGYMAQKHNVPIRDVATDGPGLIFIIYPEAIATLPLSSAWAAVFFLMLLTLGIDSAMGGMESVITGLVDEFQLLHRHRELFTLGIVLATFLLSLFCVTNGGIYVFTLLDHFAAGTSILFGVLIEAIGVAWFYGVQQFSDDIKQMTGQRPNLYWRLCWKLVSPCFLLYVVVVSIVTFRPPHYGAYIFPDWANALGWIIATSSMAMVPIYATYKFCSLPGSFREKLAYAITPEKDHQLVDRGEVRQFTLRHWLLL
Rule: measured Ki below 30 nM gets Criterion met; anything equal to or greater than 30 nM gets Criterion not met.

compound | label-class
COc1ccccc1OC(CCN)c1ccccc1 (configuration not stated) | Criterion not met
c1ccc2sc(C3(N4CCCCC4)CCCCC3)cc2c1 | Criterion met
COc1ccc(C(O[C@H]2C[C@H]3CC[C@@H](C2)N3C)c2ccccc2)cc1 (some centres not stated) | Criterion not met
COC(=O)CC[C@@H]1C2CCC(C[C@@H]1c1ccccc1)N2C (some centres not stated) | Criterion met
CCC[C@H]1CC2[C@@H](CC(=O)OC)[C@@H](Cc3ccccc3)CC1N2C (some centres not stated) | Criterion not met
CN1C2CCC1[C@@H](CCC(=O)c1ccccc1)[C@@H](c1ccccc1)C2 (some centres not stated) | Criterion met
COC(=O)/C=C/CC[C@@H]1C2CCC(C[C@@H]1c1ccccc1)N2C (some centres not stated) | Criterion met
CN1C2CCC1[C@@H](CCCc1ccccc1)[C@@H](c1ccccc1)C2 (some centres not stated) | Criterion met
CC[C@H]1CC2[C@@H](CC(=O)OC)[C@@H](Cc3ccccc3)CC1N2C (some centres not stated) | Criterion not met
COC(=O)[C@@H]1C2CC[C@H](C[C@@H]1c1ccccc1)N2C | Criterion not met
COC(=O)CC(c1ccccc1)C1CCCCN1 (configuration not stated) | Criterion not met
COC(=O)[C@@H]1C2CC[C@H](C[C@@H]1c1ccc(C)cc1)N2C | Criterion met
CN1[C@@H]2CC[C@H]1C[C@@H](OC(c1ccccc1)c1ccccc1N)C2 (some centres not stated) [AMINOBENZTROPINE] | Criterion not met
COC(=O)/C=C/[C@@H]1C2CCC(C[C@@H]1c1ccccc1)N2C (some centres not stated) | Criterion met
CCCC[C@H]1CC2[C@@H](CC(=O)OC)[C@@H](Cc3ccccc3)CC1N2C (some centres not stated) | Criterion not met
CN1C2CCC1[C@@H](/C=C/CO)[C@@H](c1ccccc1)C2 (some centres not stated) | Criterion met
CC(=O)[C@@H]1C2CCC(C[C@@H]1OC(=O)c1ccccc1)N2C (some centres not stated) | Criterion not met
COC(=O)C[C@@H]1C2C[C@H](C)C(C[C@@H]1Cc1ccccc1)N2C (some centres not stated) | Criterion not met
CN1[C@@H]2CC[C@H]1C[C@@H](OC(c1ccccc1)c1ccc(Cl)c(Cl)c1)C2 (some centres not stated) | Criterion met
O=C(OCCN1CCOCC1)C1(c2ccccc2)CCCCC1 | Criterion not met
COc1ccc2c(c1)CN(C)CC2c1ccc(Cl)c(Cl)c1 (configuration not stated) [DICLOFENSINE] | Criterion met
